Target: ACC-1G6.4 channel (Caenorhabditis elegans, UniProt Q21005)
Construct: Agonist: percentage of maximal acetylcholine-elicited response; other: compound at 0.1 mM; Agonist: percentage of maximal acetylcholine-elicited response; other: compound at 0.2 mM; other: compound at 0.4 mM; other: compound at 0.8 mM; Agonist: percentage of maxim
Sequence (Q21005 whole entry, looked up): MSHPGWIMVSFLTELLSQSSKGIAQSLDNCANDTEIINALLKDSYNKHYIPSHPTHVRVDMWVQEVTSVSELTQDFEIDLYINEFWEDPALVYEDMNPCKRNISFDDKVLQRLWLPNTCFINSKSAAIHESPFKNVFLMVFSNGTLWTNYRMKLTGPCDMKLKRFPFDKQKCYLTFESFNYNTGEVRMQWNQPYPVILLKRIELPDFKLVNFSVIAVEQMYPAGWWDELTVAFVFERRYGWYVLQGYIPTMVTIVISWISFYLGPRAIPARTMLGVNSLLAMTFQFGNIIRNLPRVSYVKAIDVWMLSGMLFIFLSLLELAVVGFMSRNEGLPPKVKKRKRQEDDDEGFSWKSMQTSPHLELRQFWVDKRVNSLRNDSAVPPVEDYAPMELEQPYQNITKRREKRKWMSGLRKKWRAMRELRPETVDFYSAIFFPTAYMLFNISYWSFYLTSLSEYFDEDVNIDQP
Assay: Two-electrode voltage-clamp of Xenopus oocytes expressing ACC-1G6.4 homomeric channel
Type: cell-based, C. elegans
Conditions: concentration tested in brackets where printed
REPORTED PROPERTY: antagonist action (in words)

COMPOUND	RESULT
CO[C@H]1CC=C2CCN3CCC4=C(CC(=O)OC4)[C@]23C1 [dβe, dihydro-β-erythroidine]	Antagonist
COc1cc2c3cc1Oc1cc(ccc1O)C[C@@H]1c4c(cc(OC)c(O)c4Oc4ccc(cc4)C[C@@H]3N(C)CC2)CC[N+]1(C)C	Antagonist

Recorded values, source patent US7700272B2.
